# measured target: T1, Antigen CD66c (CEACAM6; Sino Biological, Inc.) (UniProt P40199 35-320)
# T1 construct: Bought antigen, coated on the ELISA plate; construct not described; also called CECACAM6 (CD66c) antigen; CD66c antigen
# T1 sequence (looked up): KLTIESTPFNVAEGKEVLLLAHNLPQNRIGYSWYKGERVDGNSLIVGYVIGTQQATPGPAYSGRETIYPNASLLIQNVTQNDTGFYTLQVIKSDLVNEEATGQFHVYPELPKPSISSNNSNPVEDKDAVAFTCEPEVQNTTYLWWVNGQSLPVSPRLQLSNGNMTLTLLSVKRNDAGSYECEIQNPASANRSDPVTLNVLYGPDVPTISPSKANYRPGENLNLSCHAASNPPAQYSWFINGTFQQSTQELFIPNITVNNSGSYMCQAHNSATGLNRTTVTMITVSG
# assay comment: ELISA, CEACAM6 coated 100 ng/well, antibody at 3333.33 ng/ml
# maps each entry to its OD 450 nm
Value expressed in OD 450 nm; do not type the unit.

Some solved entries appear below for comparison.
Q. Returns the measured OD 450 nm for the input binder. Input: anti-CD66c chimeric antibody 8F5 (antibody, human IgG1, V domains shown, also called chimeric 8F5; chi 8F5) VH: EVQLQQSGPELVKPGASMKISCKASGYSFTDYTMNWVKQSHGKNLEWIGLINPFHGGTVSNQRFKVKATLTVDVSSNTAYMELLSLTSDDSAVYYCVRGDPVRHYYALAYWGQGTSVTVSS VL: DIQMTQSPASLSASVGETVTITCGASENVYGTLNWYQRKQGKSPQLLIYGATNLADGMSSRFSGSGSGRQYSLKISSLHPDDVATYYCQNVLSAPYTFGGGTKLEII
A. 3.41

Q. Returns the measured OD 450 nm for the input binder. Input: recombinant humanized anti-CD66c antibody Protein ID 3043 (Vk8 + VH6) (antibody, V domains shown, also called hu 3043; #71) VH: QVQLVQSGAEVKKPGASMKISCKASGYSFTDYTMNWVKQAPGQNLEWIGLINPFHGGTVSNQRFKVKATLTVDVSTNTAYMELSRLRSDDTAVYYCVRGDPVRHYYALAYWGQGTLVTVSS VL: DIQMTQSPSTLSASVGDRVTITCRASENVYGTLNWYQRKPGKAPKLLIYGATNLADGMPSRFSGSGSGTEYTLTISSLQPDDFATYYCQNVLSAPYTFGGGTKLEIK
A. 2.95

Next:
Q. Returns the measured OD 450 nm for the input binder. Input: recombinant humanized anti-CD66c antibody Protein ID 3019 (Vk7 + VH10) (antibody, human IgG1, V domains shown, also called hu 3019; #51) VH: QVQLVQSGAEVKKPGASVKVSCKASGYSFTDYTMNWVKQAPGQNLEWIGLINPFHGGTVSNQRFKVKATMTVDVSTNTAYMELSRLRSDDTAVYYCVRGDPVRHYYALAYWGQGTLVTVSS VL: DIQMTQSPSTLSASVGDRVTITCGASENVYGTLNWYQRKPGKAPKLLIYGATNLADGVPSRFSGSGSGTEYTLTISSLQPDDFATYYCQNVLSAPYTFGGGTKLEIK
A. 3.26

Value source: patent US20220119518A1
